- ASSAYED_TARGET: T1, histidine-tagged human thymidylate synthase (ht-hTS) (human, UniProt P04818 1-313)
- T1 construct: also called human TS
- T1 sequence (P04818 other isoform, or with tags, fused parts or gaps limits assumed): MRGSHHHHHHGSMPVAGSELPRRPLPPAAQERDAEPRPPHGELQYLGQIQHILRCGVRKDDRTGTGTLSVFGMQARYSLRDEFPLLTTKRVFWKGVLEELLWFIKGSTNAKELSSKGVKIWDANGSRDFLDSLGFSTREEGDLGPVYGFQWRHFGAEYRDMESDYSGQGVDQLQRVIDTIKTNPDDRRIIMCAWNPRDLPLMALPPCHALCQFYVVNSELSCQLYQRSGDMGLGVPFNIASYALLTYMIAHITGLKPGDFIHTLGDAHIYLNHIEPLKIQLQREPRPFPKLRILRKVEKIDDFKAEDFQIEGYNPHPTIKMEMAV
- PROCEDURE_SUMMARY: hTS enzyme inhibition assay (peptide pre-incubated with hTS, then mTHF and dUMP, absorbance at 340 nm); first bar group
OBSERVABLE: IC50 (µM)

BINDER | IC50, µM
IHTLGD (also called IHTLGD) [SEQ ID NO: 14] | 455

(A) FIHTLGD (also called FIHTLGD) [SEQ ID NO: 13]
(B) HTLGD (also called HTLGD) [SEQ ID NO: 15]
(C) DFIHTLGD (synthetic octapeptide) [SEQ ID NO: 1]
Sort low-to-high on IC50, please. As an answer, provide the labels arranged in the order called for.
C, B, A
(C: 179 µM, B: 323 µM, A: 667 µM)

Provenance of the data: patent US20120302511A1
